B1: tRNA (parent)
chain: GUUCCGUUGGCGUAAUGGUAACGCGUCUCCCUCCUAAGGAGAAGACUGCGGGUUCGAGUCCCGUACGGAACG

# Variants of: B1
# protocolDescription: yeast fitness relative to wild type (ratio to wild type); higher = fitter; tRNA-Arg(CCU), competitive growth, 37 C, YPD
Fewer inactive variants are shown than the library holds.
experimentalReadout: yeast fitness

[[record]]
variantdesignation = "G48A G58C C61A"
experimentalreadout = "yeast fitness"
measvalue = 0.601

[[record]]
variantdesignation = "U26C A37G G67C"
experimentalreadout = "yeast fitness"
measvalue = 0.614

[[record]]
variantdesignation = "C27U U32A C66U G67C"
experimentalreadout = "yeast fitness"
measvalue = 0.598

